assayed system: T1, HlgAB (Staphylococcus aureus, UniProt P0A074 30-309)
T1 sequence 1: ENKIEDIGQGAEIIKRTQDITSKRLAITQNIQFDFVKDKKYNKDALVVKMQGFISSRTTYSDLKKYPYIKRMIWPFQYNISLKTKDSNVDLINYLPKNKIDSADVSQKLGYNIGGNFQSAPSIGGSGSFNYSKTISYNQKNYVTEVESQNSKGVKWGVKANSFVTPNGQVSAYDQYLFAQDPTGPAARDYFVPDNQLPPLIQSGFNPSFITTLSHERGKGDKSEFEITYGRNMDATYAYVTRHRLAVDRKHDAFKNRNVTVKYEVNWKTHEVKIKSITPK
T1 sequence 2: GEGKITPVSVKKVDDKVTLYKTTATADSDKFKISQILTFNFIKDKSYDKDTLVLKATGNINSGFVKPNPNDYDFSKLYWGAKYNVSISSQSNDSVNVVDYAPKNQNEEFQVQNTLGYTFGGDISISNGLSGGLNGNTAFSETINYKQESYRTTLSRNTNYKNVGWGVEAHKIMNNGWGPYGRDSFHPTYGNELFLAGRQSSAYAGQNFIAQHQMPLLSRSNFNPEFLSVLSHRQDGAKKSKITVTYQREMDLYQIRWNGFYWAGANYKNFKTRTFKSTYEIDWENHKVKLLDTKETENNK
measurement protocol: cell-based or functional assay
endpoint name: IC50 for HIgAB
Reply with the number and its unit after it.

>>> reported_result("SAN481-SYT-YTE (antibody, V domains shown, also called QD5) VH: QLQLVESGGGAVQPGRSLKLSCAASGFTFSTYAMHWVRQAPGRGLEWVAVTSFDGSNEYYIDSVKGRFTISRDNTKNTLYLQMTGLRVEDTALYFCARDEYTGGWYSVGYWGQGTLVTVSS VL: QSVLTQPPSASGTPGQRVTISCSGSSYNIGSNYVYWYQQFPGTAPKLLISRSIQRPSGVPDRFSGSKSVTSASLAISGLRSEDEADYYCAAWDDSLRAWVFGGGTKLTVLG")
"0.54 µg/mL"
>>> reported_result("SAN481-SY-YTE (antibody, V domains shown, also called QD2; SAN481VL26S32Y-YTE) VH: QLQLVESGGGAVQPGRSLKLSCAASGFNFSTYAMHWVRQAPGRGLEWVAVTSFDGSNEYYIDSVKGRFTISRDNTKNTLYLQMTGLRVEDTALYFCARDEYTGGWYSVGYWGQGTLVTVSS VL: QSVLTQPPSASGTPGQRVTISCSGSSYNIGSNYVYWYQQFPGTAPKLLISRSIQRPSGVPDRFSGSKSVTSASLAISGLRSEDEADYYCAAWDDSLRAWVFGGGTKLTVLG")
"0.551 µg/mL"
>>> reported_result("SAN481-T-YTE (antibody, V domains shown, also called QD3; SAN481VH28T-YTE) VH: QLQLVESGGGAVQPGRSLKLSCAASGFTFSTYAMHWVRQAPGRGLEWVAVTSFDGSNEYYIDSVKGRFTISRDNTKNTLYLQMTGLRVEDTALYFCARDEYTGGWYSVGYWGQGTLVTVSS VL: QSVLTQPPSASGTPGQRVTISCSGNSYNIGSNSVYWYQQFPGTAPKLLISRSIQRPSGVPDRFSGSKSVTSASLAISGLRSEDEADYYCAAWDDSLRAWVFGGGTKLTVLG")
"0.539 µg/mL"

Let us examine a further case.
Prompt line: Can you look up the measured IC50 for HIgAB of SAN481-TF-YTE (antibody, V domains shown, also called QD4; SAN481-VH28T100E-YTE) VH: QLQLVESGGGAVQPGRSLKLSCAASGFTFSTYAMHWVRQAPGRGLEWVAVTSFDGSNEYYIDSVKGRFTISRDNTKNTLYLQMTGLRVEDTALYFCARDEYTGGFYSVGYWGQGTLVTVSS VL: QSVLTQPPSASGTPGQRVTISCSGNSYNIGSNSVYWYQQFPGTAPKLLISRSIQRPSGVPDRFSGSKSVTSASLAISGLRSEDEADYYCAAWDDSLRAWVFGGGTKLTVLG for me?
Response line: 0.441 µg/mL
